Source listed as paper PMC12796350.

Each entry below carries its reported SI HTB-140 (Selectivity Index).
Tested on: HTB-140 (human melanoma) cells
PROCEDURE_SUMMARY: MTT cytotoxicity assay, HTB-140
Type: cell-based
RECORDED_CONDITIONS: SI = IC50 for normal cell line (HaCaT)/IC50 cancer cell line

{"COMPOUND": "CCc1cc(=O)c2c(OCC(O)CNC(C)C)c3ccoc3c(OC)c2o1 (centres unmarked)", "SI HTB-140 (Selectivity Index)": 2.32}
{"COMPOUND": "CCc1cc(=O)c2c(O)c3ccoc3c(OC)c2o1", "SI HTB-140 (Selectivity Index)": 1.58}
{"COMPOUND": "CCc1cc(=O)c2c(OCC(O)CNC(C)(C)C)c3ccoc3c(OC)c2o1 (centres unmarked)", "SI HTB-140 (Selectivity Index)": 1.47}
{"COMPOUND": "CCc1cc(=O)c2c(OCC(O)CN3CCOCC3)c3ccoc3c(OC)c2o1 (centres unmarked)", "SI HTB-140 (Selectivity Index)": 2.29}
{"COMPOUND": "CCc1cc(=O)c2c(O)c3ccoc3c(O)c2o1", "SI HTB-140 (Selectivity Index)": 1.64}
{"COMPOUND": "CCc1cc(=O)c2c(OCC(O)CN(CC)CC)c3ccoc3c(OC)c2o1 (centres unmarked)", "SI HTB-140 (Selectivity Index)": 1.44}
{"COMPOUND": "CCc1cc(=O)c2c(OCC(O)CN3CCCCC3)c3ccoc3c(OC)c2o1 (centres unmarked)", "SI HTB-140 (Selectivity Index)": 1.60}
{"COMPOUND": "CCc1cc(=O)c2c(OCC(O)CN3CCC(C)CC3)c3ccoc3c(OC)c2o1 (centres unmarked)", "SI HTB-140 (Selectivity Index)": 1.49}
